# system tested: NADPH oxidase 1 (Homo sapiens)
# Sequence (Q9Y5S8 whole entry): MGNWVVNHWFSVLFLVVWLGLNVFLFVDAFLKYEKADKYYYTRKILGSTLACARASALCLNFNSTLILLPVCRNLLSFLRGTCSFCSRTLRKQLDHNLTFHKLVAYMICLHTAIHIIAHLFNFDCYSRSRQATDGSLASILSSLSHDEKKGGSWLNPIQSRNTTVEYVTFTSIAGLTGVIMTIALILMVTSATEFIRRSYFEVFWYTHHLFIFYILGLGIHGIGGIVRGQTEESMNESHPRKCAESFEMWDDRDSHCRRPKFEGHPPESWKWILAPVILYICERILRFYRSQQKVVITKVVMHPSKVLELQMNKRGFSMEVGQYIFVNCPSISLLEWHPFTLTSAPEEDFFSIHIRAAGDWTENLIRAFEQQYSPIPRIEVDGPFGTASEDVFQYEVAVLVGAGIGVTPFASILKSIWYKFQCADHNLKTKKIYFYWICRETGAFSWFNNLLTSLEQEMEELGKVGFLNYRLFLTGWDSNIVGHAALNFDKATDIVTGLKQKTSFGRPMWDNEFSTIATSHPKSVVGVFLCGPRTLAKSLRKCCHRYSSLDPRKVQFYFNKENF
# protocol text: Inhibition of human NOX1 expressed in Drosophila DUOX knockdown model assessed as decrease in ROS production by lucigenin chemiluminescence assay
quantity name: log10 Ki (log10 of the value in µM)
Lab note - Ki converted to log10 from values in µM.

Use the examples below as a reference point.
CN1C(=S)N(c2ccc3c(c2)CCC3)C(=O)/C1=C/c1ccc(O)cc1O
0.82
CN1C(=S)N(c2ccc3c(c2)CCC3)C(=O)/C1=C/c1ccc(N(C)C)cc1
0.91
CN1C(=S)N(c2ccccc2)C(=O)/C1=C/c1ccc(N(C)C)cc1
0.29
CN1C(=S)N(c2cccc(Cl)c2)C(=O)/C1=C/c1ccc(O)cc1O
1.54

# next compound below
Lookup result for CN1C(=S)N(c2cccc(Cl)c2)C(=O)/C1=C/c1cccc(O)c1O ; measured log10 Ki: 0.88
